biological target: Putative P2Y purinoceptor 10 (Mus musculus, UniProt Q8BFU7); test: Agonist activity at mouse P2Y10 receptor expressed in HEK293A cells after 1.5 hrs by alkaline phosphatase tagged-TGFalpha shedding assay; type: cell-based, HEK293-A; details: read-out: EC50
pEC50: −log10 of the molar value.
Quantity name: pEC50

Molecule: N[C@@H](COP(=O)(O)O[C@@H]1CCCO[C@@H]1COC(=O)CCc1ccccc1OCc1cccc(Oc2ccc(Cl)cc2)c1)C(=O)O
Val: < 6.00
--
Molecule: CCCCCCCCCCCOc1ccccc1CCC(=O)O[C@@H]1CCCO[C@@H]1COP(=O)(O)OCC(N)C(=O)O (single isomer, unassigned)
Val: < 6.00
--
Molecule: N[C@@H](COP(=O)(O)O[C@H]1C=CCO[C@@H]1COC(=O)CCc1ccccc1OCc1cccc(Oc2ccccc2)c1)C(=O)O
Val: 6.48
--
Molecule: CCCCCCCC/C=C\CCCCCCCC(=O)O[C@@H]1C=CCO[C@@H]1COP(=O)(O)OC[C@H](N)C(=O)O
Val: < 6.00
--
Molecule: CCCCCCCCCCCOc1ccccc1CCC(=O)OC[C@H]1OCCC[C@@H]1OP(=O)(O)OC[C@H](N)C(=O)O
Val: 6.21
--
Molecule: CCCCCCCCCCCOc1ccccc1CCC(=O)OC[C@H]1OCC=C[C@H]1OP(=O)(O)OC[C@H](N)C(=O)O
Val: 7.38
--
Molecule: N[C@@H](COP(=O)(O)O[C@H]1CCCO[C@@H]1COC(=O)CCc1ccccc1OCc1cccc(Oc2ccccc2)c1)C(=O)O
Val: < 6.00
--
Molecule: CCCCCCCCCCCOc1ccccc1CCC(=O)OC[C@H]1OCC=C[C@@H]1OP(=O)(O)OC[C@H](N)C(=O)O
Val: 7.77
--
Molecule: CCCCCCCC/C=C\CCCCCCCC(=O)OC[C@@H](O)COP(=O)(O)OC[C@H](N)C(=O)O
Val: 7.60
--
Molecule: N[C@@H](COP(=O)(O)O[C@@H]1C=CCO[C@@H]1COC(=O)CCc1ccccc1OCc1cccc(Oc2ccccc2)c1)C(=O)O
Val: < 6.00
--
Molecule: CCCCCCCCCCCOc1ccccc1CCC(=O)O[C@@H]1C=CCO[C@@H]1COP(=O)(O)OCC(N)C(=O)O (single isomer, unassigned)
Val: < 6.00
--
Molecule: Cc1ccc(Oc2cccc(COc3ccccc3CCC(=O)OC[C@H]3OCCC[C@H]3OP(=O)(O)OC[C@H](N)C(=O)O)c2)cc1
Val: < 6.00
--
Molecule: CCCCCCCC/C=C\CCCCCCCC(=O)O[C@H]1C=CCO[C@@H]1COP(=O)(O)OC[C@H](N)C(=O)O
Val: < 6.00
--
Molecule: CCCCCCCC/C=C\CCCCCCCC(=O)O[C@@H]1CCCO[C@@H]1COP(=O)(O)OC[C@H](N)C(=O)O
Val: < 6.00
--
Molecule: N[C@@H](COP(=O)(O)OC[C@H]1OCCC[C@H]1OC(=O)CCc1ccc(OCc2cccc(Oc3ccccc3)c2)cc1)C(=O)O
Val: < 6.00
--
Molecule: CCCCCCCCCCCOc1ccccc1CCC(=O)O[C@H]1CCCO[C@@H]1COP(=O)(O)OCC(N)C(=O)O (single isomer, unassigned)
Val: 6.54
--
Molecule: N[C@@H](COP(=O)(O)OC[C@H]1OCC=C[C@@H]1OC(=O)CCc1ccccc1OCc1cccc(Oc2ccccc2)c1)C(=O)O
Val: < 6.00
--
Molecule: CCCCCCCC/C=C\CCCCCCCC(=O)OC[C@@H]1OCC=C[C@@H]1OP(=O)(O)OC[C@@H](N)C(=O)O (single isomer, unassigned)
Val: < 6.00
--
Molecule: CCCCCCCCCCCOc1ccccc1CCC(=O)OCc1ccccc1OP(=O)(O)OC[C@H](N)C(=O)O
Val: 7.35

* * *

target: UniProt:Q9R1K6; assay: Intrinsic activity at mouse GPR34 expressed in HEK293A cells cotransfected with chimeric Galphaq/il after 1.5 hrs by alkaline phosphatase tagged-TGFalpha shedding assay relative to O-(Hydroxy(((2R,3R)-2-(((3-(2-((3-phenoxybenzyl)oxy)phenyl)-propanoyl)oxy)methyl)tetrahydro-2H-pyran-3-yl)oxy)phosphoryl)-L-serine; format: cell-based; details: HEK293-A
Sequence (Q9R1K6 whole entry): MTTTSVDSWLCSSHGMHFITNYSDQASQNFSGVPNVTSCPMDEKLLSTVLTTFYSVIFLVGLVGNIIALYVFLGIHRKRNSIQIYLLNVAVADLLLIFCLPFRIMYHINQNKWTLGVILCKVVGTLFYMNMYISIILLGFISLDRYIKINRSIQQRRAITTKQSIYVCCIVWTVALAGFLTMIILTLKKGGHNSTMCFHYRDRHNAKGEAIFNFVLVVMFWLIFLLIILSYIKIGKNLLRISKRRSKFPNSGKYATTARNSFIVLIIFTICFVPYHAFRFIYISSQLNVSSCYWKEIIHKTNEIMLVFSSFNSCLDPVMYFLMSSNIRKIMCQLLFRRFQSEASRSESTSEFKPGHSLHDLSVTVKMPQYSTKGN
Calls of active or inactive are those of the source. The calls are words filed in the database; no cut-off is given here.

Compound: N[C@@H](COP(=O)(O)OC[C@H]1OCC=C[C@@H]1OC(=O)CCc1ccccc1OCc1cccc(Oc2ccccc2)c1)C(=O)O
Tgt: UniProt:Q9R1K6
Intrinsic activity: inactive
//
Compound: CCCCCCCC/C=C\CCCCCCCC(=O)OC[C@@H]1OCC=C[C@@H]1OP(=O)(O)OC[C@@H](N)C(=O)O (single isomer, unassigned)
Tgt: UniProt:Q9R1K6
Intrinsic activity: inactive
//
Compound: CCCCCCCCCCCOc1ccccc1CCC(=O)O[C@@H]1C=CCO[C@@H]1COP(=O)(O)OCC(N)C(=O)O (single isomer, unassigned)
Tgt: UniProt:Q9R1K6
Intrinsic activity: inactive
//
Compound: N[C@@H](COP(=O)(O)O[C@@H]1C=CCO[C@@H]1COC(=O)CCc1ccccc1OCc1cccc(Oc2ccccc2)c1)C(=O)O
Tgt: UniProt:Q9R1K6
Intrinsic activity: 0.2

* * *

biological target: Probable G-protein coupled receptor 34 (Mus musculus); test: Intrinsic activity at mouse GPR34 expressed in HEK293A cells cotransfected with chimeric Galphaq/il after 1.5 hrs by alkaline phosphatase tagged-TGFalpha shedding assay relative to O-(Hydroxy(((2R,3R)-2-(((3-(2-((3-phenoxybenzyl)oxy)phenyl)-propanoyl)oxy)methyl)tetrahydro-2H-pyran-3-yl)oxy)phosphoryl)-L-serine; type: cell-based; details: HEK293-A
Quantity name: Intrinsic activity

Given smiles: CCCCCCCCCCCOc1ccccc1CCC(=O)OC[C@H]1OCCC[C@@H]1OP(=O)(O)OC[C@H](N)C(=O)O
Quantity name: Intrinsic activity
Val: 0.082
//
Given smiles: N[C@@H](COP(=O)(O)O[C@@H]1CCCO[C@@H]1COC(=O)CCc1ccccc1OCc1cccc(Oc2ccc(Cl)cc2)c1)C(=O)O
Quantity name: Intrinsic activity
Val: 3.8
//
Given smiles: CCCCCCCCCCCOc1ccccc1CCC(=O)OC[C@H]1OCCC[C@H]1OP(=O)(O)OC[C@H](N)C(=O)O
Quantity name: Intrinsic activity
Val: 0.41

* * *

biological target: Putative P2Y purinoceptor 10 (Mus musculus); assay: Intrinsic activity at mouse P2Y10 receptor expressed in HEK293A cells after 1.5 hrs by alkaline phosphatase tagged-TGFalpha shedding assay relative to diF-C3-ph-o-O-C11; format: cell-based; conditions: HEK293-A
The source made the active and inactive calls. The rule behind the calls is not given here.

Molecule: CCCCCCCCCCCOc1ccccc1CCC(=O)O[C@@H]1C=CCO[C@@H]1COP(=O)(O)OCC(N)C(=O)O (single isomer, unassigned)
Tgt: Putative P2Y purinoceptor 10 (Mus musculus)
Intrinsic activity: inactive

Molecule: CCCCCCCCCCCOc1ccccc1CCC(=O)OCc1ccc(OP(=O)(O)OC[C@H](N)C(=O)O)cc1
Tgt: Putative P2Y purinoceptor 10 (Mus musculus)
Intrinsic activity: inactive

Molecule: N[C@@H](COP(=O)(O)OC[C@H]1OCC=C[C@@H]1OC(=O)CCc1ccccc1OCc1cccc(Oc2ccccc2)c1)C(=O)O
Tgt: Putative P2Y purinoceptor 10 (Mus musculus)
Intrinsic activity: inactive

Molecule: CCCCCCCCCCCOc1ccccc1CCC(=O)OC[C@H]1OCC=C[C@H]1OP(=O)(O)OC[C@H](N)C(=O)O
Tgt: Putative P2Y purinoceptor 10 (Mus musculus)
Intrinsic activity: 0.05

Molecule: N[C@@H](COP(=O)(O)OC[C@H]1OCC=C[C@H]1OC(=O)CCc1ccccc1OCc1cccc(Oc2ccccc2)c1)C(=O)O
Tgt: Putative P2Y purinoceptor 10 (Mus musculus)
Intrinsic activity: inactive

Molecule: CCCCCCCCCCCOc1ccccc1CCC(=O)OCc1cccc(OP(=O)(O)OC[C@H](N)C(=O)O)c1
Tgt: Putative P2Y purinoceptor 10 (Mus musculus)
Intrinsic activity: 0.23

Molecule: CCCCCCCCCCCOc1ccccc1CCC(=O)OC[C@H]1OCC=C[C@@H]1OP(=O)(O)OC[C@H](N)C(=O)O
Tgt: Putative P2Y purinoceptor 10 (Mus musculus)
Intrinsic activity: 0.071

* * *

target: Putative P2Y purinoceptor 10 (Mus musculus) (UniProt Q8BFU7); test: Intrinsic activity at mouse P2Y10 receptor expressed in HEK293A cells after 1.5 hrs by alkaline phosphatase tagged-TGFalpha shedding assay relative to diF-C3-ph-o-O-C11; type: cell-based; details: HEK293-A
Sequence (Q8BFU7 whole entry): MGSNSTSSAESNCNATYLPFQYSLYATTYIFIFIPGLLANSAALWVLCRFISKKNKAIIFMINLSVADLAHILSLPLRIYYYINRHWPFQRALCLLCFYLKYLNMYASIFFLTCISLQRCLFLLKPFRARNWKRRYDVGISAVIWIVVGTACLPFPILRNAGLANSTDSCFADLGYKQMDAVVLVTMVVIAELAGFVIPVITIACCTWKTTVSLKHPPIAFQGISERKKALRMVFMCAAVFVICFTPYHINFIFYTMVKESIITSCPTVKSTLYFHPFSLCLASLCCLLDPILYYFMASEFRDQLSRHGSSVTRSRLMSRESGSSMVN
Calls of active or inactive are those of the source. No cut-off for these calls is given here.

Molecule: CCCCCCCC/C=C\CCCCCCCC(=O)OC[C@@H](O)COP(=O)(O)OC[C@H](N)C(=O)O
Tgt: Putative P2Y purinoceptor 10 (Mus musculus) (UniProt Q8BFU7)
Intrinsic activity: 0.073
//
Molecule: N[C@@H](COP(=O)(O)O[C@@H]1CCCO[C@@H]1COC(=O)CCc1ccc(OCc2cccc(Oc3ccccc3)c2)cc1)C(=O)O
Tgt: Putative P2Y purinoceptor 10 (Mus musculus) (UniProt Q8BFU7)
Intrinsic activity: inactive
//
Molecule: CCCCCCCC/C=C\CCCCCCCC(=O)OC[C@@H]1OCC=C[C@@H]1OP(=O)(O)OC[C@@H](N)C(=O)O (single isomer, unassigned)
Tgt: Putative P2Y purinoceptor 10 (Mus musculus) (UniProt Q8BFU7)
Intrinsic activity: inactive
//
Molecule: CCCCCCCCCCCOc1ccccc1CCC(=O)OC[C@H]1OCCC[C@@H]1OP(=O)(O)OC[C@H](N)C(=O)O
Tgt: Putative P2Y purinoceptor 10 (Mus musculus) (UniProt Q8BFU7)
Intrinsic activity: 0.002
//
Molecule: CCCCCCCCCCCOc1ccccc1CCC(=O)OCc1ccccc1OP(=O)(O)OC[C@H](N)C(=O)O
Tgt: Putative P2Y purinoceptor 10 (Mus musculus) (UniProt Q8BFU7)
Intrinsic activity: 0.02
//
Molecule: N[C@@H](COP(=O)(O)OC[C@H]1OCCC[C@H]1OC(=O)CCc1ccccc1OCc1cccc(Oc2ccc(Cl)cc2)c1)C(=O)O
Tgt: Putative P2Y purinoceptor 10 (Mus musculus) (UniProt Q8BFU7)
Intrinsic activity: inactive
//
Molecule: CCCCCCCC/C=C\CCCCCCCC(=O)O[C@@H]1C=CCO[C@@H]1COP(=O)(O)OC[C@H](N)C(=O)O
Tgt: Putative P2Y purinoceptor 10 (Mus musculus) (UniProt Q8BFU7)
Intrinsic activity: inactive
//
Molecule: CCCCCCCCCCCOc1ccccc1CCC(=O)OC[C@H]1OCCC[C@H]1OP(=O)(O)OC[C@H](N)C(=O)O
Tgt: Putative P2Y purinoceptor 10 (Mus musculus) (UniProt Q8BFU7)
Intrinsic activity: 0.0038
//
Molecule: N[C@@H](COP(=O)(O)O[C@H]1CCCO[C@@H]1COC(=O)CCc1ccccc1OCc1cccc(Oc2ccccc2)c1)C(=O)O
Tgt: Putative P2Y purinoceptor 10 (Mus musculus) (UniProt Q8BFU7)
Intrinsic activity: inactive
//
Molecule: N[C@@H](COP(=O)(O)OC[C@H]1OCCC[C@H]1OC(=O)CCc1ccccc1OCc1cccc(Oc2ccccc2)c1)C(=O)O
Tgt: Putative P2Y purinoceptor 10 (Mus musculus) (UniProt Q8BFU7)
Intrinsic activity: inactive
//
Molecule: CCCCCCCCCCCOc1ccccc1CCC(=O)O[C@H]1C=CCO[C@@H]1COP(=O)(O)OCC(N)C(=O)O (single isomer, unassigned)
Tgt: Putative P2Y purinoceptor 10 (Mus musculus) (UniProt Q8BFU7)
Intrinsic activity: inactive
//
Molecule: Cc1ccc(Oc2cccc(COc3ccccc3CCC(=O)OC[C@H]3OCCC[C@H]3OP(=O)(O)OC[C@H](N)C(=O)O)c2)cc1
Tgt: Putative P2Y purinoceptor 10 (Mus musculus) (UniProt Q8BFU7)
Intrinsic activity: inactive
//
Molecule: N[C@@H](COP(=O)(O)O[C@H]1C=CCO[C@@H]1COC(=O)CCc1ccccc1OCc1cccc(Oc2ccccc2)c1)C(=O)O
Tgt: Putative P2Y purinoceptor 10 (Mus musculus) (UniProt Q8BFU7)
Intrinsic activity: 0.0053
//
Molecule: CCCCCCCC/C=C\CCCCCCCC(=O)O[C@H]1C=CCO[C@@H]1COP(=O)(O)OC[C@H](N)C(=O)O
Tgt: Putative P2Y purinoceptor 10 (Mus musculus) (UniProt Q8BFU7)
Intrinsic activity: inactive
//
Molecule: CCCCCCCCCCCOc1ccccc1CCC(=O)O[C@@H]1CCCO[C@@H]1COP(=O)(O)OCC(N)C(=O)O (single isomer, unassigned)
Tgt: Putative P2Y purinoceptor 10 (Mus musculus) (UniProt Q8BFU7)
Intrinsic activity: inactive
//
Molecule: N[C@@H](COP(=O)(O)OC[C@H]1OCCC[C@@H]1OC(=O)CCc1ccccc1OCc1cccc(Oc2ccccc2)c1)C(=O)O
Tgt: Putative P2Y purinoceptor 10 (Mus musculus) (UniProt Q8BFU7)
Intrinsic activity: inactive
//
Molecule: CCCCCCCCCCCOc1ccccc1CCC(=O)O[C@H]1CCCO[C@@H]1COP(=O)(O)OCC(N)C(=O)O (single isomer, unassigned)
Tgt: Putative P2Y purinoceptor 10 (Mus musculus) (UniProt Q8BFU7)
Intrinsic activity: 0.0098

Sourced from ChEMBL document CHEMBL3813596
